# PROTOCOL_SUMMARY: Bioanalysis of brain and plasma samples (UPLC-MS/MS)
# Format: in vivo, Sprague Dawley rats
# REPORTED_CONDITIONS: male, Sprague Dawley, plasma, po; rat, p.o., 10 mg/kg, 6 h; read-out: Mean rat plasma conc.
READOUT_KIND: concentration at 6 h (ng/mL)
Record the value in ng/mL, omitting the unit from your answer.

Exam item: Fill in: concentration at 6 h of [2H]C([2H])([2H])Oc1cnc(C(=O)Nc2ccc(F)c([C@]3(C)CC[C@@](F)(CF)C(N)=N3)c2)cn1 [Example 1] is ___
Marked response: 230

* * *

# PROTOCOL_SUMMARY: Bioanalysis of brain and plasma samples (UPLC-MS/MS)
# Assay type: in vivo, Sprague Dawley rats
# REPORTED_CONDITIONS: male, Sprague Dawley, plasma, po; rat, p.o., 10 mg/kg, 3 h; read-out: Mean rat plasma conc.
READOUT_KIND: concentration at 3 h (ng/mL)
Record the value in ng/mL, omitting the unit from your answer.

Exam item: Fill in: concentration at 3 h of [2H]C([2H])([2H])Oc1cnc(C(=O)Nc2ccc(F)c([C@]3(C)CC[C@@](F)(CF)C(N)=N3)c2)cn1 is ___
Marked response: 340
